Origin of values: ChEMBL document CHEMBL4513216

experiment: Toxicity liver stage against HepG2, at 10uM; format: cell-based; parameters: test concentration 10 uM, cell line HepG2-A16-CD81EGFP; settings: human, HepG2-A16-CD81EGFP cells; read-out: INHIBITION

compound	cytotoxicity at 10 µM (%)
Cc1cccc(S(=O)(=O)N2C[C@@H]3C[C@H](C(=O)NC4CCC4)[C@H](C2)O3)c1	-1.74
N#CC1(NC(=O)COC(=O)Cn2cccn2)CCCC1	8.89
CC(=O)N1CC[C@@H]2CN(C(=O)c3ccco3)CCO[C@@H]2C1	2.93
Cc1c(C(=O)NS(=O)(=O)c2ccc(F)cc2)cnn1CC(C)C	-6.63
CNC(=O)C1CCN(C(=O)NCc2ccc(C)n2C)CC1	-1.81
Cc1ccc(OC2(C(=O)O)CCN(C(=O)CCc3ccco3)CC2)cc1	-8.06
CC(NS(C)(=O)=O)C(=O)N(C)Cc1csc(-c2ccccc2)n1 (stereo not given)	2.5
CN(C)CCNCC1COCc2c(-c3ccnn3C)nnn2C1 (stereo not given)	-99.9
Cc1ccc(CN(C)C(=O)CN2CCCCC2Cn2cncn2)cc1 (stereo not given)	17.7
CO[C@@H]1CCN(c2ncc(F)cn2)[C@H]1Cc1cnn(C)c1	-2.63
COc1ccc(-n2cc3[nH]c(=O)n(C(C)C)n3c2=O)cc1	2.03
CC(C)CS(=O)(=O)N1C[C@@H]2C[C@H](C(=O)NCc3ccccc3)[C@H](C1)O2	8.24
COc1ccccc1C(=O)NC(c1ccccn1)C1CCC(CN)CC1 (stereo not given)	-12.8
CN1CC(c2ccccc2)CC12CCN(C(=O)c1ccc(Cl)cn1)CC2 (stereo not given)	3.62
Cc1cccc(C(C)(C)NC(=O)CS(=O)(=O)CC(C)C)c1	0.927

---

assay: Toxicity liver stage against HepG2, at 10uM; format: cell-based; set-up: test concentration 10 uM, cell line HepG2-A16-CD81EGFP; conditions: human, HepG2-A16-CD81EGFP cells; read-out: INHIBITION
property-name: cytotoxicity at 10 µM (%)

compound	property-name	recorded-result
OCCOCCNCC1(c2ccc(F)cc2)CCOC1 (stereo not drawn)	cytotoxicity at 10 µM	-147
CN(C)C(=O)[C@@H]1CC[C@@H]2[C@@H](CCN2Cc2nccs2)O1	cytotoxicity at 10 µM	1.97
CC[C@@H]1N(Cc2ccsc2)CCC[C@]12CCC(=O)N2C	cytotoxicity at 10 µM	10

---

assay: Toxicity liver stage against HepG2, at 10uM; type: cell-based; parameters: test concentration 10 uM, cell line HepG2-A16-CD81EGFP; settings: human, HepG2-A16-CD81EGFP cells; read-out: INHIBITION
Listed next: entries and their corresponding cytotoxicity at 10 µM.

molecule	cytotoxicity at 10 µM [%]
Cc1nc(C)c(C(=O)N2CCCc3c(F)ccc(F)c32)o1	7.19
CCN1CCC[C@@H]1CNC(=O)c1cc(COc2ccccc2)[nH]n1	0.635
O=C(NC1CCN(c2ccc(-c3ccccc3F)nn2)C1)c1ccc[nH]1 (stereo not drawn)	7.4

---

Listed next: entries and their corresponding cytotoxicity at 10 µM.
assay: Toxicity liver stage against HepG2, at 10uM; format: cell-based; set-up: test concentration 10 uM, cell line HepG2-A16-CD81EGFP; conditions: human, HepG2-A16-CD81EGFP cells; read-out: INHIBITION

compound	unit-spec	cytotoxicity at 10 µM
O=C(O)c1ccc(Cc2cccc(F)c2)nc1	%	3.11
CN(c1ncccc1C#N)C1CCN(CCc2ccncc2)CC1	%	28.7
CN(Cc1nnc(-c2cccs2)o1)Cc1nc2c(s1)CCCC2	%	2.4
CC(O)CN(CC(=O)NC(=O)NC1CC1)c1ccccc1 (configuration not stated)	%	-2.14
Cc1cnn(CCNCc2c(C)nn(CCO)c2C)c1	%	6.35
Cc1cccc(CNC(=O)CNc2cc(CO)ccc2Cl)c1	%	1.73
CS(=O)(=O)N1CCCC12CCCN(C(=O)c1ccc3[nH]ccc3c1)C2 (configuration not stated)	%	-140
CC(C)c1noc(CN2CCN(C(=O)c3ccccc3F)CC2)n1	%	-8.08
Cn1cc(CN2CCCN(CCCc3ccccc3)CC2)cn1	%	-50.8
CN(Cc1nncn1-c1cccc(C(F)(F)F)c1)S(C)(=O)=O	%	3.01
CCc1ncc(C(=O)N(C)C2Cc3ccccc3C2)cn1	%	-1.05
CC(=O)N1CCC2(C=C(C(=O)NC3CC3)c3ccccc32)CC1	%	4.59
Cc1cnn(CCNCc2csc(-c3ccc4c(c3)OCO4)n2)c1	%	-6.41
Cc1nc2c(c(N(C)CC3Cc4ccccc4CN3C)n1)CCNCC2 (configuration not stated)	%	-29
O=S(=O)(N1CCCC1)N1C[C@@H](c2cccc(F)c2)[C@@H]2NCCCCC[C@H]21	%	-25
OC(CNCc1nnc2ccccn12)c1ccc2c(c1)OCCCO2 (configuration not stated)	%	2.93
COc1cc(CNC(=O)NCc2c(C)cc(C)[nH]c2=O)ccc1C	%	-11.5
Cc1nc(CSCCC(=O)NCc2ccc(-n3cncn3)nc2)cs1	%	-27.2
CC(NC(=O)N1CCSC(C)(C)C1)c1noc(-c2ccccc2)n1 (configuration not stated)	%	-22.3
CCS(=O)(=O)N1CCc2ccc(=O)n(CC3CC3)c2CC1	%	7.95
O=C(CCc1nc(-c2cccnc2)no1)NCC1CCN(C2CC2)C1 (configuration not stated)	%	0.113
COc1cccc(CC(C)NC(=O)c2ccc(CNC(C)=O)cc2)c1 (configuration not stated)	%	7.21
O=C(c1ccnnc1)N1C[C@H]2CCC[C@@]2(COCc2ccccn2)C1	%	-78.7
Cc1cc(C)c(Cn2cncn2)cc1CN1CC[C@@H]2CC[C@H](C1)N2	%	-3.96
Cc1nc(Nc2ncccn2)cc(C2CCCN2C(C)C)n1 (configuration not stated)	%	-17.3
COc1cccc(CN2C[C@@H]3COC[C@]3(CN3CCOCC3)C2)c1	%	-80.6
CC(C)N1CCO[C@H]2CN(C(=O)c3ccncc3)C[C@H]21	%	-74.3
Cn1ccnc1CN1CCC(Cn2cc(-c3ccncc3)nn2)CC1	%	-4.5
COCCN(Cc1cccc(O)c1)Cc1ccccc1F	%	4.73
CCC1(c2ccc(NS(=O)(=O)N(C)C)cc2)CCC(=O)NC1=O (configuration not stated)	%	-7.19
O=C(Cn1cccn1)Nc1ccc(N2CCOCC2)cc1	%	-2.51
COc1ccc2c(c1)[C@@H](CCNC(C)=O)CC(C)(C)O2	%	-6.33
O=C(c1cnccn1)N1CCN2C[C@H](OCc3ccccn3)C[C@H]2C1	%	-0.746
Cn1cnc2c1CCN(Cc1nc(Cc3ccccc3)no1)C2	%	-7.99
COc1ccccc1OCCNCc1c(C)nn(C)c1N(C)C	%	-2.9
CC(NC(=O)N1CCN(c2ccccc2O)CC1)c1nncn1C (configuration not stated)	%	-6.01
CC(C)n1ccnc1C1CCN(C(=O)N2CCCC2)CC1	%	0.386
